Measured inhibition in vivo at 1000 mg/kg, listed per entry for reference.
Tested on: carrageenin edema
Assay: Anti-Carrageenin edema activity
Type: in vivo, rat
Details: Rattus norvegicus, po, 1000 mg/kg once, read-out: I.R. against carrageenin edema
Respond with a number, then the unit of measure.

Record excerpt, results attached:
NC(=O)c1ccccc1NC1(CO)OC[C@@H](O)[C@@H](O)[C@@H]1O (stereo partly drawn) [Compound 1, o-Aminobenzoic acid amide-N-D-fructoside] :: 15.6%
O=C(OCC1CCCCC1)c1ccc(NC2O[C@H](CO)[C@@H](O)[C@H](O)[C@H]2O)cc1 (stereo partly drawn) :: 10.6%
C[C@@H]1OC(Nc2ccccc2C(=O)Oc2ccccc2)[C@H](O)[C@H](O)[C@H]1O (stereo partly drawn) [Compound 6, phenyl o-aminobenzoate-N-L-rhamnoside] :: 7.6%
O=C(OCc1ccccc1)c1cccc(NC2O[C@H](CO)[C@@H](O[C@@H]3O[C@H](CO)[C@H](O)[C@H](O)[C@H]3O)[C@H](O)[C@H]2O)c1 (stereo partly drawn) [Compound 12, benzyl m-aminobenzoate-N-lactoside] :: 18.7%
O=C(OCc1ccccc1)c1ccc(NC2(CO)OC[C@@H](O)[C@@H](O)[C@@H]2O)cc1 (stereo partly drawn) [Compound 15, benzyl p-aminobenzoate-N-D-fructoside] :: 30.8%
O=C(Oc1ccccc1)c1ccc(NC2O[C@H](CO)[C@@H](O[C@@H]3O[C@H](CO)[C@@H](O)[C@H](O)[C@H]3O)[C@H](O)[C@H]2O)cc1 (stereo partly drawn) [Compound 9, phenyl p-aminobenzoate-N-cellobioside] :: 3.7%
O=C(OCc1ccccc1)c1ccc(NC2O[C@H](CO)[C@@H](O)[C@H](O)[C@H]2O)cc1 (stereo partly drawn) [Compound 14, benzyl p-aminobenzoate-N-D-glucoside] :: 5.1%
O=C(OCC1CCCCC1)c1ccc(NC2OC[C@@H](O)[C@@H](O)[C@H]2O)cc1 (stereo partly drawn) :: 4.9%
COC(=O)Cc1ccc(NC2O[C@@H](C)[C@H](O)[C@@H](O)[C@H]2O)cc1 (stereo partly drawn) :: 5.3%
C[C@@H]1OC(Nc2ccc(CC(=O)O)cc2)[C@H](O)[C@H](O)[C@H]1O (stereo partly drawn) [Compound 27, p-aminophenylacetic acid-N-L-rhamnoside] :: 5.2%

The compound O=C(Oc1ccccc1)c1cccc(NC2O[C@H](CO)[C@@H](O)[C@H](O)[C@@H]2O)c1 (stereo partly drawn) [Compound 7, phenyl m-aminobenzoate-N-D-mannoside] on carrageenin edema: inhibition in vivo at 1000 mg/kg was 5.9%

Tested system carrageenin edema; inhibition in vivo at 1000 mg/kg recorded for O=C(Oc1ccccc1)c1ccc(NC2O[C@H](CO)[C@@H](O[C@H]3O[C@H](CO)[C@@H](O[C@H]4O[C@H](CO)[C@@H](O)[C@H](O)[C@H]4O)[C@H](O)[C@H]3O)[C@H](O)[C@H]2O)cc1 (stereo partly drawn) [Compound 10, phenyl p-aminobenzoate-N-maltotrioside] was 6.6%

----------
System: cotton pellet granuloma
Experiment: Anti-granuloma activity (cotton pellet)
Format: in vivo, rat
Settings: Rattus norvegicus, po, 192 h, 7 days, read-out: I.R. against cotton pellet edema
quantity: inhibition in vivo at 1000 mg/kg/day (%)
The figure you give is taken to be in %; do not add the unit.

Guide cases for inhibition in vivo at 1000 mg/kg/day, answers given:
NC(=O)c1ccccc1NC1(CO)OC[C@@H](O)[C@@H](O)[C@@H]1O (stereo partly drawn) [Compound 1, o-Aminobenzoic acid amide-N-D-fructoside] :: 6.6
C[C@@H]1OC(Nc2cccc(C(=O)OCC3CCCCC3)c2)[C@@H](O)[C@H](O)[C@@H]1O (stereo partly shown) :: 15.7
O=C(OCc1ccccc1)c1cccc(NC2O[C@H](CO)[C@@H](O[C@@H]3O[C@H](CO)[C@H](O)[C@H](O)[C@H]3O)[C@H](O)[C@H]2O)c1 (stereo partly shown) [Compound 12, benzyl m-aminobenzoate-N-lactoside] :: 8.4

Entry under test: C[C@@H]1OC(Nc2ccc(C(=O)OCC3CCCCC3)cc2)[C@H](O)[C@H](O)[C@H]1O (stereo partly shown) . Its inhibition in vivo at 1000 mg/kg/day was 6.5

Documented inhibition in vivo at 1000 mg/kg/day of O=C(OC1CCCCC1)c1ccccc1NC1C[C@H](O)[C@H](O)CO1 (stereo partly shown) : 6.5

inhibition in vivo at 1000 mg/kg/day recorded for this compound, O=C(Oc1ccccc1)c1cccc(NC2O[C@H](CO)[C@@H](O)[C@H](O)[C@@H]2O)c1 (stereo partly drawn) [Compound 7, phenyl m-aminobenzoate-N-D-mannoside] , is 25.3

// inhibition in vivo at 1000 mg/kg/day lookup, compound = O=C(Oc1ccccc1)c1ccc(NC2O[C@H](CO)[C@@H](O[C@@H]3O[C@H](CO)[C@@H](O)[C@H](O)[C@H]3O)[C@H](O)[C@H]2O)cc1 (stereo partly shown) [Compound 9, phenyl p-aminobenzoate-N-cellobioside] , result: 7.9

The compound listed as O=C(OC1CCCCC1)c1cccc(NC2O[C@H](CO)[C@@H](O)[C@H](O)[C@@H]2O)c1 (stereo partly drawn) [Compound 17, cyclohexyl m-aminobenzoate-N-D-mannoside] shows inhibition in vivo at 1000 mg/kg/day equal to 19.7
